Molecular target: JAK3 (Homo sapiens (Human))
Assay: Enzyme assay (Assay Example^a 1), JAK3
Type: biochemical
Quantity: IC50 (µM)

1. FC(F)(F)c1ccc(CN2CCC(c3nnn4cnc5[nH]ccc5c34)CC2)cn1 [compound 52]; 0.041
2. CC(=O)SC[C@H]1CC[C@H](c2nnn3cnc4[nH]ccc4c23)CC1 [compound 71]; 0.055
3. FCCNC[C@H]1CC[C@H](c2nnn3cnc4[nH]ccc4c23)CC1 [compound 107]; 0.28
4. Clc1ccc(CN2CCC(c3nnn4cnc5[nH]ccc5c34)CC2)cc1 [compound 54]; 0.071
5. Cc1nc(C2CCCCC2)c2c3cc[nH]c3ncn12 [compound 1]; 1.4
6. FC(F)(Br)CNC[C@H]1CC[C@H](c2nnn3cnc4[nH]ccc4c23)CC1 [compound 269]; 0.057
7. N#Cc1ccc(NC2CCC(c3nnn4cnc5[nH]ccc5c34)CC2)cc1 (stereo not drawn) [compound 121]; 0.46
8. O=c1[nH]c(C2CCCCC2)c2c3cc[nH]c3ncn12 [compound 9]; 0.43
9. O[C@H]1CC[C@H](c2nnn3cnc4[nH]ccc4c23)CC1 [compound 81]; 0.64
10. N#Cc1ccc(N[C@H]2CC[C@@H](c3nnn4cnc5[nH]ccc5c34)CC2)cc1 [134a]; 1
11. FC(F)(F)CN1CCC(c2nnn3cnc4[nH]ccc4c23)CC1 [compound 25]; 0.44
12. Cc1ccc(CNC[C@H]2CC[C@H](c3nnn4cnc5[nH]ccc5c34)CC2)s1 [compound 106]; 0.28
13. FC(F)(Br)CN[C@H]1CC[C@@H](c2nnn3cnc4[nH]ccc4c23)CC1 [382a]; 0.75
14. O[C@H]1CC[C@@H](c2nnn3cnc4[nH]ccc4c23)CC1 [compound 83]; 0.28
15. FC(F)(Br)CN[C@H]1CC[C@H](c2nnn3cnc4[nH]ccc4c23)CC1 [382b]; 0.07

* * *

Quick reference for IC50 among some molecules
Target: JAK3 (Homo sapiens (Human), UniProt P52333)
Sequence (P52333 whole entry): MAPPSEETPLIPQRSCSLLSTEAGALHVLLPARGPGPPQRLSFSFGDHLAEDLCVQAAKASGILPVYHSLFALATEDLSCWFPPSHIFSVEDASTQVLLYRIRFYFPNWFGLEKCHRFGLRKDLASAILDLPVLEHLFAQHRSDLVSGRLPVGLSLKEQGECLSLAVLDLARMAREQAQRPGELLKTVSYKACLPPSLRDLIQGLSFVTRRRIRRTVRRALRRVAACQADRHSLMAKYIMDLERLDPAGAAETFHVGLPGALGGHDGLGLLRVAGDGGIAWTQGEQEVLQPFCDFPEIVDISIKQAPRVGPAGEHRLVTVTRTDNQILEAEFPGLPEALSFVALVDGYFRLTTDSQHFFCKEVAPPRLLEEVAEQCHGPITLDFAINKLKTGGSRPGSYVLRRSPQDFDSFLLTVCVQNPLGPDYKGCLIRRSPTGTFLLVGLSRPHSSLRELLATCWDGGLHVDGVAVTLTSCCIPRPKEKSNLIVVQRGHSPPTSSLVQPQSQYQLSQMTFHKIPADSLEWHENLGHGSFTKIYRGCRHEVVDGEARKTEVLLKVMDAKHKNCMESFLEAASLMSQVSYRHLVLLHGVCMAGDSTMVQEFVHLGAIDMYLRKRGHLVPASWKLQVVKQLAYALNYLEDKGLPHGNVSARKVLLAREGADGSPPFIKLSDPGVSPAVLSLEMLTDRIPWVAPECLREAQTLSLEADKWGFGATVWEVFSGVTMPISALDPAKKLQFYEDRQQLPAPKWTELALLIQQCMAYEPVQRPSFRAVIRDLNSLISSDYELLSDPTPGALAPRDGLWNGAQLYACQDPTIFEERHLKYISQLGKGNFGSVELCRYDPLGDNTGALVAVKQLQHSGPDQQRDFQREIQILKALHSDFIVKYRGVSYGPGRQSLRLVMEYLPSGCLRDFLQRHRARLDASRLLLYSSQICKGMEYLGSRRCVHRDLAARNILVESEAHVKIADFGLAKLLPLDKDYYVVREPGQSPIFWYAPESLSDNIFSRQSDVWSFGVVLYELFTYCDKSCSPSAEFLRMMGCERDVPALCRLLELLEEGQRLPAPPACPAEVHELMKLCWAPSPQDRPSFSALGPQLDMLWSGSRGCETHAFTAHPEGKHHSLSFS
Assay: Enzyme assay (Assay Example^a 1), JAK3
Type: biochemical
Settings: ATP 100 μM
Quantity: IC50

1) N#CCN(CC1CC1)C[C@H]1CC[C@H](c2nnn3cnc4[nH]ccc4c23)CC1; > 1 µM
2) c1cc2c(ncn3nnc([C@H]4CC[C@H](CNC5CC5)CC4)c23)[nH]1; 0.68 µM
3) c1cc2c(ncn3nnc([C@H]4CC[C@H](CN5CCCC5)CC4)c23)[nH]1; > 1 µM
4) FC(F)(F)COC1CN(C[C@H]2CC[C@H](c3nnn4cnc5[nH]ccc5c34)CC2)C1; > 1 µM

* * *

Target: Tyk2 (Homo sapiens (Human))
Sequence (P29597 whole entry): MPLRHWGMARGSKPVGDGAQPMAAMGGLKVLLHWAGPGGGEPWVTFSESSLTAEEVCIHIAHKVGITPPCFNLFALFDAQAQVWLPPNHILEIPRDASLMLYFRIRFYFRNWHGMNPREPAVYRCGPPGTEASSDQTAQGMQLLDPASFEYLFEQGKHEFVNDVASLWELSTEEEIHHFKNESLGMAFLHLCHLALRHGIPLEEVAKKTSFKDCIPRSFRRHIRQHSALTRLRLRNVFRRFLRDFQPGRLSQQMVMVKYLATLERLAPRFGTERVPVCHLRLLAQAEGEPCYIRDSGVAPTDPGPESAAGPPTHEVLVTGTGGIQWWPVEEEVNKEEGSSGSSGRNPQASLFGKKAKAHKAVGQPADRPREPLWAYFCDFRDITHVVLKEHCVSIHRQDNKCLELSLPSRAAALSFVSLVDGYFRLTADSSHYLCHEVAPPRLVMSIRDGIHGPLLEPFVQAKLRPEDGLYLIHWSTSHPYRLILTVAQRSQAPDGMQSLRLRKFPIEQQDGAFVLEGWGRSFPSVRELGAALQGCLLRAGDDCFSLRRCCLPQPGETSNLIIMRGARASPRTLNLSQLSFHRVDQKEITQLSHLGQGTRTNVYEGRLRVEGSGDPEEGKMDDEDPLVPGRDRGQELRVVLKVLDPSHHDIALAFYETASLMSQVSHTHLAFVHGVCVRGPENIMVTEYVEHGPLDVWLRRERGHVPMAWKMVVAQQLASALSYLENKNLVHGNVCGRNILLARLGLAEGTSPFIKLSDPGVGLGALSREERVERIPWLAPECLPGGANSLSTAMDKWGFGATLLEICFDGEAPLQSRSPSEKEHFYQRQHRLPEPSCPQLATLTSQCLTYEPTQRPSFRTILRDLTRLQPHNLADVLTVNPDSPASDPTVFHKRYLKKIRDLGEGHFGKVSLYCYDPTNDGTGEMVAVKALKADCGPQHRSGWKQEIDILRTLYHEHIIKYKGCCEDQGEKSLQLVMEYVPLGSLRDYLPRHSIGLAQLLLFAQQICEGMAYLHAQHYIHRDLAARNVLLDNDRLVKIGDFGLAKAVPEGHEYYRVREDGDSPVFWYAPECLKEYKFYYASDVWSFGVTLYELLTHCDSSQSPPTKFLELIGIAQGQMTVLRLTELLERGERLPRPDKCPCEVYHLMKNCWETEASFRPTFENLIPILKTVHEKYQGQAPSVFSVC
Test: Enzyme assay (Assay Example^a 1), Tyk2
Assay type: biochemical
Settings: ATP 100 μM
Quantity: IC50 (µM)

1) N#CCCNC(=O)[C@H]1CC[C@H](c2nnn3cnc4[nH]ccc4c23)CC1 [compound 356]; 0.16
2) CC(=O)N[C@@H]1CCN(C[C@H]2CC[C@H](c3nnn4cnc5[nH]ccc5c34)CC2)C1 [compound 318]; 0.61
3) FC(F)(F)CN[C@H]1CC[C@H](c2nnn3cnc4[nH]ccc4c23)CC1 [395b]; 0.15
4) FC(F)CNC[C@H]1CC[C@H](c2nnn3cnc4[nH]ccc4c23)CC1 [compound 255]; 0.14
5) O/N=C/[C@H]1CC[C@H](c2nnn3cnc4[nH]ccc4c23)CC1 [compound 429]; 0.52
6) c1cc2c(ncn3nnc([C@H]4CC[C@H](CNC56CC(C5)C6)CC4)c23)[nH]1 [compound 316]; 0.59
7) COCC1(NC[C@H]2CC[C@H](c3nnn4cnc5[nH]ccc5c34)CC2)CC1 [compound 293]; 0.31
8) FC(F)(F)C(F)(F)CN[C@H]1CC[C@H](c2nnn3cnc4[nH]ccc4c23)CC1 [383b]; 0.17
9) N#CC1CC12CCC(c1nnn3cnc4[nH]ccc4c13)CC2 (centres unmarked) [compound 444]; 0.045
10) O[C@@H]1Cc2ccccc2[C@@H]1NC1CCC(c2nnn3cnc4[nH]ccc4c23)CC1 (mixture of isomers) [compound 379]; 0.29
11) FC(F)(Br)CN[C@H]1CC[C@@H](c2nnn3cnc4[nH]ccc4c23)CC1 [382a]; 0.76
12) c1cc2c(ncn3nnc([C@H]4CC[C@H](CNC5CCCC5)CC4)c23)[nH]1 [compound 284]; 0.32
